Record form. Attribute: Emax. Fill in for each entry.
Target: human GLP1R (Homo sapiens, UniProt P43220)
Sequence (P43220 24-463): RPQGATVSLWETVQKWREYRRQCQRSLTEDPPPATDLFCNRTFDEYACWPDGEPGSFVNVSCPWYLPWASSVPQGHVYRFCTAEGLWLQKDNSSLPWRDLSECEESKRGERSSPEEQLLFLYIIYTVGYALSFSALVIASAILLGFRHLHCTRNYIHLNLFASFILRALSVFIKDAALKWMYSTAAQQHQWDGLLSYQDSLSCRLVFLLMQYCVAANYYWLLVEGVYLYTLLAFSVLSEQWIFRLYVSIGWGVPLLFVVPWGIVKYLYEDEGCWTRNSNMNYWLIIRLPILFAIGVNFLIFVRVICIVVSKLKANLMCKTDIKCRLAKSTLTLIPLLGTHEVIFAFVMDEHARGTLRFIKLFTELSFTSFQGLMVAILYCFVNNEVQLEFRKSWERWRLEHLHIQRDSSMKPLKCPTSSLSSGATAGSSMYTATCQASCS
Experiment: Human GLP1R DERET internalization assay
Assay type: cell-based
Details: HEK293-SNAP-hGLP1R-GloSensor cells; relative to GLP1(7-36)
Answer as a quantity: numeral, then unit.

Look over these answered cases.
COMPOUND: C[C@]1(c2ccc(Cl)cc2F)Oc2cccc(C3CCN(Cc4nc(C(F)(F)F)c(-c5nnn[nH]5)n4C[C@@H]4CCO4)CC3)c2O1
Emax: -3%

COMPOUND: C[C@]1(c2ccc(Cl)cc2F)Oc2cccc(C3CCN(Cc4nc(F)c(/C=C/C(=O)O)n4C[C@@H]4CCO4)CC3)c2O1
Emax: 90%

COMPOUND: Cc1nc(CN2CCC(c3cccc4c3O[C@@](C)(c3ccc(Cl)cc3F)O4)CC2)n(C[C@@H]2CCO2)c1C(=O)NCC(=O)O
Emax: 8%

# return Emax for each item in the list
1. Cc1nc(CN2CCC(c3cccc4c3O[C@@](C)(c3ccc(Cl)cc3F)O4)CC2)n(C[C@@H]2CCO2)c1CCC(=O)O
2. Cc1nc(CN2CCC(c3cccc4c3O[C@@](C)(c3ccc(Cl)cc3F)O4)CC2)n(C[C@@H]2CCO2)c1/C=C(/F)C(=O)O [Compound C-19a]
3. Cc1c(-c2cccc(C(=O)O)c2)nc(CN2CCC(c3cccc4c3O[C@@](C)(c3ccc(Cl)cc3F)O4)CC2)n1C[C@@H]1CCO1

Response:
28%
27%
2%

* * *

Record form. Attribute: half-life. Fill in for each entry.
Experiment: Pharmacokinetics in C57BL/6 mice (i.v. and oral)
Details: male, C57BL/6, mouse, whole blood, iv, 1 mg/kg
Give bare numbers, in h.

SMILES TEXT: C[C@]1(c2ccc(Cl)cc2F)Oc2cccc(C3CCN(Cc4ncc(/C=C/C(=O)O)n4C[C@@H]4CCO4)CC3)c2O1
half-life, h: 1.06

Now consider a different compound.
Query: So what's the measured half-life for this one? Cc1nc(CN2CCC(c3cccc4c3O[C@@](C)(c3ccc(Cl)cc3F)O4)CC2)n(C[C@@H]2CCO2)c1/C=C/C(=O)O
Response: 1.42

* * *

Assay: in vivo
Conditions: male, C57BL/6, mouse, in vivo, po, 3 mg/kg
MEASUREMENT KIND: half-life

Look over these answered cases.
COMPOUND: C[C@]1(c2ccc(Cl)cc2F)Oc2cccc(C3CCN(Cc4nc5ccc(C(=O)O)cc5n4C[C@@H]4CCO4)CC3)c2O1 [compound 1, reference compound]
half-life: 3.19 h
--
COMPOUND: Cc1nc(CN2CCC(c3cccc4c3O[C@@](C)(c3ccc(Cl)cc3F)O4)CC2)n(C[C@@H]2CCO2)c1C(=O)O
half-life: 1.84 h

Now consider a different compound.
Query: So what's the measured half-life for this one? C[C@]1(c2ccc(Cl)cc2F)Oc2cccc(C3CCN(Cc4nc(C(F)(F)F)c(/C=C/C(=O)O)n4C[C@@H]4CCO4)CC3)c2O1
Response: 2.7 h

* * *

Test: Pharmacokinetics in C57BL/6 mice (i.v. and oral)
Settings: male, C57BL/6, mouse, whole blood, po, 3 mg/kg
MEASUREMENT KIND: Tmax (min)
One number for each entry, in min.

COMPOUND: Cc1nc(CN2CCC(c3cccc4c3O[C@@](C)(c3ccc(Cl)cc3F)O4)CC2)n(C[C@@H]2CCO2)c1/C=C/C(=O)O [Compound 5]
MEASUREMENT KIND: Tmax
DISPLAY UNIT: min
ENDPOINT VALUE: 60

Query: So what's the measured Tmax for this one? C[C@]1(c2ccc(Cl)cc2F)Oc2cccc(C3CCN(Cc4ncc(/C=C/C(=O)O)n4C[C@@H]4CCO4)CC3)c2O1 [Compound 1]
Response: 45
